Biological target: Yer184c (UniProt P39961)
Sequence: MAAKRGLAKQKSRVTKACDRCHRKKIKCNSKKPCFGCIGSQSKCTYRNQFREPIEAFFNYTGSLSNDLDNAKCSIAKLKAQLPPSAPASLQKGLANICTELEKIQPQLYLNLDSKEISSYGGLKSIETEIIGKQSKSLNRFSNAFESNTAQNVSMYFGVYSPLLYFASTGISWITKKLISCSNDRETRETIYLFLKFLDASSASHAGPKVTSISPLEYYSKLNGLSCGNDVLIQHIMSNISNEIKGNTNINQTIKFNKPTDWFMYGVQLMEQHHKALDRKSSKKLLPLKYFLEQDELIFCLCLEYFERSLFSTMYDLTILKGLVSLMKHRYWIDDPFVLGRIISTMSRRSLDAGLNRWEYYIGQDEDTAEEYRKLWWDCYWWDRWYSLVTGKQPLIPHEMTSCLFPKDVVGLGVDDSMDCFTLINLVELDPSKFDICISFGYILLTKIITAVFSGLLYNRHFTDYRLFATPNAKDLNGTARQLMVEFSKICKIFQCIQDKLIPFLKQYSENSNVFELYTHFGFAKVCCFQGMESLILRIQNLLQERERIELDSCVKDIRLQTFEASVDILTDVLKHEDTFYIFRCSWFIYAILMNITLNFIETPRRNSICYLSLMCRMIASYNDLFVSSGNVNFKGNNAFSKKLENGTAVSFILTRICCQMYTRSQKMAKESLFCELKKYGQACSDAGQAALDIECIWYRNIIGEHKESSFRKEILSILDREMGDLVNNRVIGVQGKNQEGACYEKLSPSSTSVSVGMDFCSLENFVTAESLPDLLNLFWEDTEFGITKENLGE
Experiment: PBM E-score (8-mer binding enrichment) (E-score (-0.5 to 0.5)); higher = stronger / more preferred TF binding
Details: protein concentration: 100 nM; construct: GST-full length
Over roughly 33,000 sequences, “E-score (-0.5 to 0.5)” has its median near -0.016; the highest 2% begin near 0.3. Many of the other results were omitted from the sample, so the highest values are more common in it than they were.
Assign class by PBM E-score: not lower than 0.05 means true; lower than 0.05 means false.

Worked set:
- MONOMER SEQUENCE: "ACACAGGT"
  TARGET SYSTEM: "Yer184c (UniProt P39961)"
  CATEGORY LABEL: "false"
- MONOMER SEQUENCE: "CCGGTTGC"
  TARGET SYSTEM: "Yer184c (UniProt P39961)"
  CATEGORY LABEL: "true"
- MONOMER SEQUENCE: "GAGTATGC"
  TARGET SYSTEM: "Yer184c (UniProt P39961)"
  CATEGORY LABEL: "false"
- MONOMER SEQUENCE: "AAAGGGCA"
  TARGET SYSTEM: "Yer184c (UniProt P39961)"
  CATEGORY LABEL: "false"
- MONOMER SEQUENCE: "ATGCTGGG"
  TARGET SYSTEM: "Yer184c (UniProt P39961)"
  CATEGORY LABEL: "false"
- MONOMER SEQUENCE: "CTCTTATA"
  TARGET SYSTEM: "Yer184c (UniProt P39961)"
  CATEGORY LABEL: "true"
- MONOMER SEQUENCE: "ACGGTTGA"
  TARGET SYSTEM: "Yer184c (UniProt P39961)"
  CATEGORY LABEL: "false"
- MONOMER SEQUENCE: "CCGGTTTC"
  TARGET SYSTEM: "Yer184c (UniProt P39961)"
  CATEGORY LABEL: "true"
- MONOMER SEQUENCE: "AATATCAT"
  TARGET SYSTEM: "Yer184c (UniProt P39961)"
  CATEGORY LABEL: "true"

Field: next sequence
Could you tell me if the measured PBM E-score of ATACGCGG reaches 0.05 or more?
false
